- System: P388/ADR
- ASSAY_COMMENT: cells
- Type: functional
- CONDITION_INFO: Mus musculus
Calls of active or inactive are those of the source.
Give your call using only these classes: active, inactive

Check out these entries, answers already filled in.
1) CCC1=CC2CN3CCc4c([nH]c5ccccc45)C(C(=O)OC)(C2)C13 (stereo not given) : inactive
2) COc1cc2c(c(OC)c1OC)-c1ccc(OC)c(=O)cc1[C@@H](NC(C)=O)CC2 : inactive
3) C(=N/NC1=NCCN1)/c1c2ccccc2c(/C=N\NC2=NCCN2)c2ccccc12 : inactive
4) Cc1cc2c(c3oc(C4(C)OC4C4OC4C)cc(=O)c13)C(=O)c1c(O)c(C3CC(C)(N(C)C)C(O)C(C)O3)cc(C3CC(N(C)C)C(O)C(C)O3)c1C2=O (stereo not given) : active

Next up:
Record lookup: outcome of this test for COc1ccc(/C=C\c2cc(OC)c(OC)c(OC)c2)c(O)c1O ?
active

* * *

- TARGET_SYSTEM: UniProtKB P33261
- Sequence (P33261 whole entry): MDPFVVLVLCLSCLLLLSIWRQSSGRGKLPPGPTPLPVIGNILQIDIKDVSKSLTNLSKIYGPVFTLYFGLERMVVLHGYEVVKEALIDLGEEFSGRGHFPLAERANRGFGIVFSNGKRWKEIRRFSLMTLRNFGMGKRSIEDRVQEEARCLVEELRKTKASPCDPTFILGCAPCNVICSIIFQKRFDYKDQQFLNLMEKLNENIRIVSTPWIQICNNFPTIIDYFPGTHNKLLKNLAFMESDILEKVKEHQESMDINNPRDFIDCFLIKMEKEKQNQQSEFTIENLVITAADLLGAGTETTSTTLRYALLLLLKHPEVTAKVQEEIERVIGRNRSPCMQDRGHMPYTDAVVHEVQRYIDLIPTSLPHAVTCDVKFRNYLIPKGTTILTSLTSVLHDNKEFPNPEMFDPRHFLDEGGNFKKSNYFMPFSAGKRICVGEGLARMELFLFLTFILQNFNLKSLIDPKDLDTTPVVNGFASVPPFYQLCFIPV
- ASSAY_COMMENT: Cytochrome panel assay with activity outcomes. Panel member name: p450-cyp2c19 Compounds with AC50 equal or less than 10 uM are considered active
- Assay type: functional
- CONDITION_INFO: read-out: AC50
ASSAY_METRIC: AC50

1. COc1ccc(-n2c(=O)c(-c3cccc(Cl)c3)nc3cncnc32)cc1 : 39.8 µM (inconclusive)
2. N[C@@](C(=O)O)(c1ccc(P(=O)(O)O)cc1)C1CC1 : 25.1 µM (inconclusive)
3. c1cncc(-c2nnc3n2C2(CCCCC2)Cc2ccccc2-3)c1 : 44.7 µM (inconclusive)
4. Cc1nc2c(ccc3nc(NC(=O)c4ccc(S(=O)(=O)N(C)C)cc4)sc32)s1 : 7.94 µM (inconclusive)
5. CN(C)C(=O)c1ccc(-c2nccc(-n3ccnc3)n2)cc1 : 39.8 µM (inconclusive)

Could you now consider this next compound?
Entry COc1cc2nc3c(c([Si](C)(C)C(C)(C)C)c2cc1OC)Cn1c-3cccc1=O needs its AC50 filled in; supply it.
39.8 µM (inconclusive)

* * *

Measured IC50 values are reported for all entries that follow.
- TARGET_SYSTEM: Photoreceptor-specific nuclear receptor (Homo sapiens);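 further: CHO-S cells with Gal4-NCOR and VP16-NR2E3 two-hybrid luciferase reporter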
- Sequence (Q9Y5X4 whole entry, the tested form may be a part): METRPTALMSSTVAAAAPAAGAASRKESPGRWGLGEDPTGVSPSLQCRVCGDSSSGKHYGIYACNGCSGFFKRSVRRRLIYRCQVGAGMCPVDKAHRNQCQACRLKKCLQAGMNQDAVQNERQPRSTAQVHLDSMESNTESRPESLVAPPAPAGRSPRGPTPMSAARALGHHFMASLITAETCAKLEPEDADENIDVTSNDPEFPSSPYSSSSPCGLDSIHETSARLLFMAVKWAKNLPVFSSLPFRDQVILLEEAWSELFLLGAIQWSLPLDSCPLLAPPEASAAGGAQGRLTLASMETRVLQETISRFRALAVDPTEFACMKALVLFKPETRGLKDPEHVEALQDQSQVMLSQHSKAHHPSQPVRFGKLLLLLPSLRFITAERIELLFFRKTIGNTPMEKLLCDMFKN
- Assay type: functional, cell-based
Calls of active or inactive are those of the source.

1) O=C(Nc1ccccc1Cl)/C(Cl)=C(\Cl)[S+]([O-])c1ccccc1 (centres undefined) : 2.92 µM (active)
2) CC(Oc1ccc(Br)cc1)c1nc2c3ccccc3nc(S)n2n1 (centres undefined) : 3.74 µM (active)
3) O=C(C1CCC(CNS(=O)(=O)c2cccc3nsnc23)CC1)N1CC=C(c2ccccc2)CC1 (centres undefined) : 3.8 µM (active)

Provide measured IC50 on Photoreceptor-specific nuclear receptor (Homo sapiens) for Cc1ccnc(NC(=O)CCCOc2cc(=O)n(C)c3ccccc23)c1 please.
2.97 µM (active)

* * *

- System: SN12K1
- ASSAY_COMMENT: cells
- Assay type: functional
- CONDITION_INFO: Homo sapiens
Where a name gives a salt, the structure may show the parent alone. The source made the active and inactive calls.
Give your call using only these classes: 1 (active), 0 (inactive)

Check out these entries, answers already filled in.
1) COc1cc2c(c(OC)c1OC)-c1ccc(OC)c(=O)cc1[C@@H](NC(C)=O)CC2 : 1
2) COc1cccc2c1C(=O)c1c(O)c3c(c(O)c1C2=O)C[C@](O)(C(=O)CO)CC3OC1CC(N)C(OC2CCCCO2)C(C)O1 (stereo partly specified) : 1
3) CC[C@@]1(O)C(=O)OCc2c1cc1n(c2=O)Cc2cc3c(CN(C)C)c(O)ccc3nc2-1 [TOPOTECAN HYDROCHLORIDE] : 1

Record lookup: outcome of this test for CCC1=CC2CN3CCc4c([nH]c5ccccc45)C(C(=O)OC)(C2)C13 (stereo unspecified) ?
0

Record lookup: outcome of this test for O=C(O)Cc1cccc2c(=O)cc(-c3ccccc3)oc12 ?
0

Record lookup: outcome of this test for O=C1NC2(CCCCC2)C(=O)N1CCN(CCCl)CCCl ?
0

* * *

- TARGET_SYSTEM: UniProt:P49327
- Sequence (P49327 whole entry, the tested form may be a part): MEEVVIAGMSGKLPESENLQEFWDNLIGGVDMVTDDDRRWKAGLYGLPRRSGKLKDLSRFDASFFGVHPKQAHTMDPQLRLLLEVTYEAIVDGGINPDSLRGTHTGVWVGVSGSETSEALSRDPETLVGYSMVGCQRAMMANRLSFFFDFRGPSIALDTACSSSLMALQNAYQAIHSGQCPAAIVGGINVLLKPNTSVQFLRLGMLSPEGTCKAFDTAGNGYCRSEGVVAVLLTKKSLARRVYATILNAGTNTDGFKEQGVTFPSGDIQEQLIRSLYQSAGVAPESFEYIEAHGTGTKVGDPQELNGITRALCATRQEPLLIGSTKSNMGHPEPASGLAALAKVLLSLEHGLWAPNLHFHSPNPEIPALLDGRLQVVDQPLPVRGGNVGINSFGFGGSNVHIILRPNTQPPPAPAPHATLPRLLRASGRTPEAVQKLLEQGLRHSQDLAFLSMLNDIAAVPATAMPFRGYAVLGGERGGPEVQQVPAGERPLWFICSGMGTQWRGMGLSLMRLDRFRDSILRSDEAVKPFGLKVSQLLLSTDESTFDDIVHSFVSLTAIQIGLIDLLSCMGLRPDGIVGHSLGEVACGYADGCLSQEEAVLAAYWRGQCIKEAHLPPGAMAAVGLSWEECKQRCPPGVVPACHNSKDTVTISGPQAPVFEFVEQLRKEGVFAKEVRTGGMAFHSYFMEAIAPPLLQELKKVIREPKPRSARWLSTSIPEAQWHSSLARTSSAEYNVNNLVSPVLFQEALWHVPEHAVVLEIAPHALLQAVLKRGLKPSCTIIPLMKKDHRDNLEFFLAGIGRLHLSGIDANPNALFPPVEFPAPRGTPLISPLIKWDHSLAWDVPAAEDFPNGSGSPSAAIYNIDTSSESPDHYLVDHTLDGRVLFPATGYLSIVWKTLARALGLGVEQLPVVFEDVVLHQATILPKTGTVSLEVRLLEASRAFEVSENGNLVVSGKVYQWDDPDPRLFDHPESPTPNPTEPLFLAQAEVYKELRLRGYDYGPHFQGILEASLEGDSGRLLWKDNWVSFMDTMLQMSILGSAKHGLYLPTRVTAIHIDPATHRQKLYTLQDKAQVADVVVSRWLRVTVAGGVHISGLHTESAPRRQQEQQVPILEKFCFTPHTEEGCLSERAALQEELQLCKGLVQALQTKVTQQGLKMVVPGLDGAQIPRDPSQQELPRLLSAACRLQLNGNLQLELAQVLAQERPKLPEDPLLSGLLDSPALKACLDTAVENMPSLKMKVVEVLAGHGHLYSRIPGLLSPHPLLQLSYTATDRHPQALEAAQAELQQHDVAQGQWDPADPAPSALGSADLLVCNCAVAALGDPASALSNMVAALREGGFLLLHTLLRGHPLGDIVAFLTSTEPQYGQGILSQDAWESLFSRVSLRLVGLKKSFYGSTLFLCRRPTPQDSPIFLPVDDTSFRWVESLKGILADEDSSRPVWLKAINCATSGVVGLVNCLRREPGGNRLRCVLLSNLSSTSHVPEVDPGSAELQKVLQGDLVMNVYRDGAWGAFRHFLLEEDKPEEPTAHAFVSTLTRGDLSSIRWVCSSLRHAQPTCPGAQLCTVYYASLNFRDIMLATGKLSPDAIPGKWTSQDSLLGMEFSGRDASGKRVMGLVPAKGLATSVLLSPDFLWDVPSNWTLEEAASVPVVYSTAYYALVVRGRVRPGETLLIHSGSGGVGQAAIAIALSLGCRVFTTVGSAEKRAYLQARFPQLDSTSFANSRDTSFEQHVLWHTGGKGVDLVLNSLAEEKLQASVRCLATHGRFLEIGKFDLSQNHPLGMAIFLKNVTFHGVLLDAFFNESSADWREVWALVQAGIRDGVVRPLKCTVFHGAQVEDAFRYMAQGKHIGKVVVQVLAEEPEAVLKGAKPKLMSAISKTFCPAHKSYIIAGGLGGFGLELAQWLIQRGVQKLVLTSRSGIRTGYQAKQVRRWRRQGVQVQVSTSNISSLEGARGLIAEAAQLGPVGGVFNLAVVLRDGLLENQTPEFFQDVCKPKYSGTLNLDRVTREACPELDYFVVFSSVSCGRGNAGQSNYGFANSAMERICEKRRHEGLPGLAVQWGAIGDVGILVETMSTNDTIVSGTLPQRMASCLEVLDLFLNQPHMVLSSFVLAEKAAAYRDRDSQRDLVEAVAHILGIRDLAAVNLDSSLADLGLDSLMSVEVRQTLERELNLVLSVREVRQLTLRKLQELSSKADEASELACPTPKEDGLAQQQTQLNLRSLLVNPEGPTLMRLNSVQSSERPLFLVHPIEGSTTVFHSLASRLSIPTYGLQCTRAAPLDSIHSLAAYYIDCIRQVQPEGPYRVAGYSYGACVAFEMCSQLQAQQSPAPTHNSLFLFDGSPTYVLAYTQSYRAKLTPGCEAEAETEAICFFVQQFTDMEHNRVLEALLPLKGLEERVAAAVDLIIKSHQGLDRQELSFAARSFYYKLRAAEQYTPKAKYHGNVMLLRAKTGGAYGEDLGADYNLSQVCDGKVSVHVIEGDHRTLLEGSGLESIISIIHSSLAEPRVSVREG
- ASSAY_COMMENT: FAS thioesterase domain inhibitors, dose response, biochemical, kinetic fluorescence intensity (AID 624326);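 further: rate of fluorescence rise from hydrolysis of a fluorogenic O-methyl fluorescein ester substrate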
- Type: functional
Calls of active or inactive are those of the source.
Give your call using only these classes: active, inactive

Check out these entries, answers already filled in.
1. C[C@@]12C(=O)N(c3cccc(Br)c3)C(=O)N1[C@H](c1ccc(Cl)cc1)[C@@H]1C(=O)N(C3CCCCC3)C(=O)[C@@H]12 : active
2. O=C(Nc1ccccc1Cl)/C(Cl)=C(\Cl)[S+]([O-])c1ccccc1 (configuration not stated) : active
3. Cc1c(OCc2nn[nH]n2)ccc2c(-c3ccccc3)cc(=O)oc12 : active

Record lookup: outcome of this test for Oc1ccc(O)c2c1C1(Cl)C(Cl)=C(Cl)C2(Cl)C1(Cl)Cl ?
active

Record lookup: outcome of this test for COc1ccc(C(=O)N2CCN(CCc3ccccc3)CC2)cc1[N+](=O)[O-] ?
active

Record lookup: outcome of this test for CSc1ccc(CN2C(=O)C(F)(F)Oc3c(C(C)=O)cccc32)cc1 ?
active

Record lookup: outcome of this test for O=C(Nc1ccc(Br)cc1)c1cccc(-n2cnnn2)c1 ?
inactive

* * *

- TARGET_SYSTEM: Induced myeloid leukemia cell differentiation protein Mcl-1 (Homo sapiens)
- Sequence (Q07820 whole entry): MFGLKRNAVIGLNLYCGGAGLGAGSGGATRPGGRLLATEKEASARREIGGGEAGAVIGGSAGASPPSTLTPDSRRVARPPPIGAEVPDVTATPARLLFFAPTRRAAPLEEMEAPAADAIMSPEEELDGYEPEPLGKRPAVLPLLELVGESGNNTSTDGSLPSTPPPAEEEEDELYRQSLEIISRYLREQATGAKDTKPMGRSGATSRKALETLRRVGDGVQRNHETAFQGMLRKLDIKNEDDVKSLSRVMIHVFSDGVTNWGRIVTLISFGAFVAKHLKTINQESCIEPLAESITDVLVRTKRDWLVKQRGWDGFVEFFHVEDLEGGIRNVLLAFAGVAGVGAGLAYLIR
- Assay type: functional
Calls of active or inactive are those of the source.
Measured IC50 values are reported for all entries that follow.

Consider the following illustrative entries.
1) O=[N+]([O-])c1cccc(S(=O)(=O)Nc2nc3ccccc3nc2Nc2cccc(S(=O)(=O)N3CCCCC3)c2)c1 : 5.85 µM (active)
2) COc1ccc(N2Cc3cccc(C(=O)O)c3C2=O)cc1 : 4.43 µM (active)

Could you now consider this next compound?
Entry O=C(NCCc1ccccc1)c1ccc2nc(-c3ccco3)c(-c3ccco3)nc2c1 needs its IC50 filled in; supply it.
3.16 µM (active)

* * *

- TARGET_SYSTEM: Aminopeptidase N (Plasmodium falciparum FcB1/Columbia, UniProt O96935)
- Sequence (O96935 whole entry): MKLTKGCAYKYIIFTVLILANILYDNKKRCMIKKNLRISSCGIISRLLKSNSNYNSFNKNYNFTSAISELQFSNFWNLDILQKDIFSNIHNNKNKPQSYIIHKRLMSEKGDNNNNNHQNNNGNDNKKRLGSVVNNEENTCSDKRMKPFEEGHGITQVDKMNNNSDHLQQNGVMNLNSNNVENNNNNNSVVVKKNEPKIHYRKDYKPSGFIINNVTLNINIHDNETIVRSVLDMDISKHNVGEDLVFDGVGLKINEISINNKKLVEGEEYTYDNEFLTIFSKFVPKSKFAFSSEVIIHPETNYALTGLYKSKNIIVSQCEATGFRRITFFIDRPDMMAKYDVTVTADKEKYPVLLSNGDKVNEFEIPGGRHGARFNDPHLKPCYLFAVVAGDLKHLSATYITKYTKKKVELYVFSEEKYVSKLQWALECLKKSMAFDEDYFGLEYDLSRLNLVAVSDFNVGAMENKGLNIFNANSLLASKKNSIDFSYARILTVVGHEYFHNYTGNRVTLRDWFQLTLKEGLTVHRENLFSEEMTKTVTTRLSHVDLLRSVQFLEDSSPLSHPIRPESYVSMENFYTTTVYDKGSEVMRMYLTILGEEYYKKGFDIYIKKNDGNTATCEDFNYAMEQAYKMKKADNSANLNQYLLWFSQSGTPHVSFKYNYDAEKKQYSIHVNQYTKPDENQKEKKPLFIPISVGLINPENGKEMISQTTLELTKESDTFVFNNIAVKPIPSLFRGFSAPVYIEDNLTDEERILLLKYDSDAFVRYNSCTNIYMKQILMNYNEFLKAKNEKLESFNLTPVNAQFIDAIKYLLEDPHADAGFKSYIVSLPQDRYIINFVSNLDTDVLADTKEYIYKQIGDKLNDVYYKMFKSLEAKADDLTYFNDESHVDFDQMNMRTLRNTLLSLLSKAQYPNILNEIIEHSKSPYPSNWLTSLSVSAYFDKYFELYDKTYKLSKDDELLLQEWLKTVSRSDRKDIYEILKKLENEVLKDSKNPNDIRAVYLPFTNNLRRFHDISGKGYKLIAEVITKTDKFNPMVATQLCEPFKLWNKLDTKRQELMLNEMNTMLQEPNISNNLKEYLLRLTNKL
- ASSAY_COMMENT: P. falciparum M1AAP inhibitors, biochemical, fluorogenic H-Leu-NHMec substrate, 1536-well (AID 1445)
- Set-up: species or system Plasmodium falciparum 3D7, 3D7
Calls of active or inactive are those of the source.
ASSAY_METRIC: IC50

Consider the following illustrative entries.
1) Cc1ncc(CO)c(/C=N/NC(=O)c2ccc(Br)cc2)c1O : 14.4 µM (active)
2) CCOc1cc(C2C3=C(CCCC3=O)OC3=C2C(=O)CCC3)cc([N+](=O)[O-])c1O : 46.3 µM (active)
3) CCCN1C(=O)/C(=C/c2c(N3CCNC(=O)C3CC(=O)OCC)nc3c(C)cccn3c2=O)SC1=S (stereo unspecified) : 34.1 µM (active)
4) CCOc1ccc(/C=C2\SC(=S)N(NS(=O)(=O)c3ccc(C)cc3)C2=O)cc1OC : 34.2 µM (active)
5) O=C(O)CCCC(=O)N1N=C(c2c(O)nc3ccc(Cl)cc3c2-c2ccccc2)CC1c1cccs1 (stereo unspecified) : 20.3 µM (active)

Could you now consider this next compound?
Provide measured IC50 on Aminopeptidase N (Plasmodium falciparum FcB1/Columbia, UniProt O96935) for O=C(N/N=C/c1cc(Br)ccc1O)c1ccccc1Cl please.
8.06 µM (active)
